tested on: BT-549 breast; experiment: NCI tumour cell line growth inhibition, 48 h
# TGI >= 30 µM gives Condition met, anything below gives Condition not met

// below: answered compounds
[
  {
    "COMPOUND": "Nc1ncnc2c1ncn2C1OC(C(=O)OCCO)C(O)C1O (stereo not given)",
    "LABEL VALUE": "Condition met"
  },
  {
    "COMPOUND": "COc1cc[nH]c1/C=C1\\C(=O)Nc2ccc([N+](=O)[O-])c(N3CC[C@@H](O)C3)c21",
    "LABEL VALUE": "Condition not met"
  }
]

Given the entry COc1ccc(CNC(=O)c2c(C)n([O-])c3cc(F)c(F)cc3[n+]2=O)cc1 , answer whether its TGI meets or surpasses 30 µM. Condition not met

Entry N#CCCN(CCC#N)c1ccc(/C=C2\N=C(c3ccccc3)N(c3ccccc3)C2=O)cc1 : is its TGI no less than 30 µM? Condition met

// inclusive: TGI at least 30 µM? input: NCCNc1ncnc2ccc(Cl)cc12 Condition met

Has CN1C(=O)C(O)C[C@@H]1c1ccc(F)cc1 (stereo not given in full) a recorded TGI greater than or equal to 30 µM? Condition met

Decide: TGI of Cc1cc(C)nc(NS(=O)(=O)c2ccc(NC(=O)c3ccc4nc5ccccc5c(Nc5ccc(S(=O)(=O)Nc6nc(C)cc(C)n6)cc5)c4c3)cc2)n1 >= 30 µM? Condition met

Can N#CC(CC(=O)O)=C(c1ccccc1)c1ccccc1 be said to have TGI at or above 30 µM? Condition met
